Provide the reported optical density of each item.
Molecular target: Human Fc (human)
Test: ELISA; negative control
Give bare numbers, in OD.

{"Binder": "372_E08 (antibody, V domains shown) VH: EVQLLESGGGLVQPGGSLRLSCAASGFTFSDYSMNWVRQAPGKGLEWVSNINYNGGYTSYADSVKGRFTISRDNSKNTLYLQMNSLRAEDTAVYYCARGATWHDTHLDYWGQGTLVTVSS VL: DIQMTQSPSSLSASVGDRVTITCRASQSIITYLNWYQQKPGKAPKLLIYAATSRASGVPSRFSGSGSGTDFTLTISSLQPEDFATYYCQQSYNLPLTFGGGTKVEIK", "optical density / OD": 0.369}

[Q] Would you kindly share the measured optical density for 367_C08 (antibody, V domains shown) VH: EVQLLESGGGLVQPGGSLRLSCAASGFTFDSYSMHWVRQAPGKGLEWVAGINYNGGYTSYADSVKGRFTISRDNSKNTLYLQMNSLRAEDTAVYYCARGATWHDTHLDYWGQGTLVTVSS VL: DIQMTQSPSSLSASVGDRVTITCRASQSILTYLNWYQQKPGKAPKLLIYAATSLASGVPSRFSGSGSGTDFTLTISSLQPEDFATYYCQQSDSNPLTFGGGTKVEIK ?
[A] 0.278
